Listing of entries alongside the reported IC50.
- System: 945468-187-T-J2-PDC spheroids viability
- Assay Remarks: Anticancer human tumor 945468-187-T-J2-PDC patient-derived rectal carcinoma cell line growth inhibition [PI3K]
- Condition Info: curve of first compound; second compound 0.316 µM; spheroids with HUVEC and MSC
Readout Kind: IC50

>>> observed_result("CC(C)NCC(C(=O)N1CCN(c2ncnc3c2C(C)CC3O)CC1)c1ccc(Cl)cc1 (stereo not given) + CC(Nc1ccc2c(c1)OCCn1cc(N3C(=O)OCC3C(F)F)nc1-2)C(N)=O")
"> 10 µM"
>>> observed_result("CC1(C)CCC(CN2CCN(c3ccc(C(=O)NS(=O)(=O)c4ccc(NCC5CCOCC5)c([N+](=O)[O-])c4)c(Oc4cnc5[nH]ccc5c4)c3)CC2)=C(c2ccc(Cl)cc2)C1 + COc1c(OCCCN2CCOCC2)ccc2c3n(c(=NC(=O)c4cnc(N)nc4)nc12)CCN3")
"< 0.0316 µM"
>>> observed_result("CC1(C)CCC(CN2CCN(c3ccc(C(=O)NS(=O)(=O)c4ccc(NCC5CCOCC5)c([N+](=O)[O-])c4)c(Oc4cnc5[nH]ccc5c4)c3)CC2)=C(c2ccc(Cl)cc2)C1 + CC(Nc1ncnc2nc[nH]c12)c1cc2cccc(Cl)c2c(=O)n1-c1ccccc1")
"> 10 µM"
>>> observed_result("CNC(=O)c1ccc(N2C(=S)N(c3ccc(C#N)c(C(F)(F)F)c3)C(=O)C2(C)C)cc1F + CC(Nc1ccc2c(c1)OCCn1cc(N3C(=O)OCC3C(F)F)nc1-2)C(N)=O")
"> 10 µM"
>>> observed_result("CC(C)n1nc(-c2ccc3oc(N)nc3c2)c2c(N)ncnc21 + CC(Nc1ncnc2nc[nH]c12)c1cc2cccc(Cl)c2c(=O)n1-c1ccccc1")
"> 0.1 µM"
>>> observed_result("CC(Cn1ccc(-c2ccc(C#N)c(Cl)c2)n1)NC(=O)c1cc(C(C)O)[nH]n1 (stereo not given) + COc1c(OCCCN2CCOCC2)ccc2c3n(c(=NC(=O)c4cnc(N)nc4)nc12)CCN3")
"< 0.0316 µM"
>>> observed_result("CC1(C)CCC(CN2CCN(c3ccc(C(=O)NS(=O)(=O)c4ccc(NCC5CCOCC5)c([N+](=O)[O-])c4)c(Oc4cnc5[nH]ccc5c4)c3)CC2)=C(c2ccc(Cl)cc2)C1 + CC(Nc1ccc2c(c1)OCCn1cc(N3C(=O)OCC3C(F)F)nc1-2)C(N)=O")
"6.74 µM"
>>> observed_result("CCN1CCN(Cc2ccc(Nc3ncc(F)c(-c4cc(F)c5nc(C)n(C(C)C)c5c4)n3)nc2)CC1 + CC(Nc1ncnc2nc[nH]c12)c1cc2cccc(Cl)c2c(=O)n1-c1ccccc1")
"> 1 µM"
>>> observed_result("CCCS(=O)(=O)Nc1ccc(F)c(C(=O)c2c[nH]c3ncc(-c4ccc(Cl)cc4)cc23)c1F + COc1c(OCCCN2CCOCC2)ccc2c3n(c(=NC(=O)c4cnc(N)nc4)nc12)CCN3")
"< 0.0316 µM"
>>> observed_result("C[C@@H](NC(=O)c1ncnc(N)c1Cl)c1ncc(C(=O)Nc2cc(C(F)(F)F)c(Cl)cn2)s1 + CC(Nc1ncnc2nc[nH]c12)c1cc2cccc(Cl)c2c(=O)n1-c1ccccc1")
"> 10 µM"

====

- Test system: 945468-187-T-J2-PDC spheroids viability
- Assay Remarks: Anticancer human tumor 945468-187-T-J2-PDC cell line growth inhibition [PI3K];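 note: spheroids exposed to compounds for seven days before reading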
- Condition Info: second compound 0.0316 µM; first compound 0.0316 µM; stronger effect = lower value; spheroids with HUVEC and MSC
Label Fulfilled when viability, T/C is strictly below 90%; otherwise label Not fulfilled.

>>> category_label("CC(C)n1nc(-c2ccc3oc(N)nc3c2)c2c(N)ncnc21 + CC(Nc1ncnc2nc[nH]c12)c1cc2cccc(Cl)c2c(=O)n1-c1ccccc1")
"Not fulfilled"
>>> category_label("CC(=O)c1c(C)c2cnc(Nc3ccc(N4CCNCC4)cn3)nc2n(C2CCCC2)c1=O + Cc1nc(NC(=O)N2CCCC2C(N)=O)sc1-c1ccnc(C(C)(C)C(F)(F)F)c1")
"Fulfilled"
>>> category_label("CC1(C)CCC(CN2CCN(c3ccc(C(=O)NS(=O)(=O)c4ccc(NCC5CCOCC5)c([N+](=O)[O-])c4)c(Oc4cnc5[nH]ccc5c4)c3)CC2)=C(c2ccc(Cl)cc2)C1 + CC(Nc1ccc2c(c1)OCCn1cc(N3C(=O)OCC3C(F)F)nc1-2)C(N)=O")
"Not fulfilled"
>>> category_label("CNC(=O)c1ccc(N2C(=S)N(c3ccc(C#N)c(C(F)(F)F)c3)C(=O)C2(C)C)cc1F + CC(Nc1ccc2c(c1)OCCn1cc(N3C(=O)OCC3C(F)F)nc1-2)C(N)=O")
"Not fulfilled"
>>> category_label("Cn1ncnc1[C@H]1c2n[nH]c(=O)c3cc(F)cc(c23)N[C@@H]1c1ccc(F)cc1 + CC(Nc1ncnc2nc[nH]c12)c1cc2cccc(Cl)c2c(=O)n1-c1ccccc1")
"Fulfilled"

====

- Tested on: 945468-187-T-J2-PDC spheroids viability
- Assay Remarks: Anticancer human tumor 945468-187-T-J2-PDC cell line growth inhibition [PI3K];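 note: spheroids exposed to compounds for seven days before reading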
- Condition Info: second compound 0.0316 µM; first compound 1 µM; stronger effect = lower value; spheroids with HUVEC and MSC
Listing of entries alongside the reported viability, T/C.
Readout Kind: viability, T/C (%)

>>> observed_result("C#Cc1c(F)ccc2cc(O)cc(-c3ncc4c(N5CC6CCC(C5)N6)nc(OCC56CCCN5CC(F)C6)nc4c3F)c12 (stereo not given) + COc1c(OCCCN2CCOCC2)ccc2c3n(c(=NC(=O)c4cnc(N)nc4)nc12)CCN3")
110
>>> observed_result("CCCS(=O)(=O)Nc1ccc(F)c(C(=O)c2c[nH]c3ncc(-c4ccc(Cl)cc4)cc23)c1F + CC(Nc1ncnc2nc[nH]c12)c1cc2cccc(Cl)c2c(=O)n1-c1ccccc1")
89.2
>>> observed_result("CC(C)NCC(C(=O)N1CCN(c2ncnc3c2C(C)CC3O)CC1)c1ccc(Cl)cc1 (stereo not given) + CC(Nc1ccc2c(c1)OCCn1cc(N3C(=O)OCC3C(F)F)nc1-2)C(N)=O")
90.7
>>> observed_result("CC1(C)CCC(CN2CCN(c3ccc(C(=O)NS(=O)(=O)c4ccc(NCC5CCOCC5)c([N+](=O)[O-])c4)c(Oc4cnc5[nH]ccc5c4)c3)CC2)=C(c2ccc(Cl)cc2)C1 + CC(Nc1ncnc2nc[nH]c12)c1cc2cccc(Cl)c2c(=O)n1-c1ccccc1")
98.2
>>> observed_result("C#Cc1c(F)ccc2cc(O)cc(-c3ncc4c(N5CC6CCC(C5)N6)nc(OCC56CCCN5CC(F)C6)nc4c3F)c12 (stereo not given) + CC(Nc1ccc2c(c1)OCCn1cc(N3C(=O)OCC3C(F)F)nc1-2)C(N)=O")
88.1
>>> observed_result("CC(Cn1ccc(-c2ccc(C#N)c(Cl)c2)n1)NC(=O)c1cc(C(C)O)[nH]n1 (stereo not given) + CC(Nc1ncnc2nc[nH]c12)c1cc2cccc(Cl)c2c(=O)n1-c1ccccc1")
104
>>> observed_result("CCN1CCN(Cc2ccc(Nc3ncc(F)c(-c4cc(F)c5nc(C)n(C(C)C)c5c4)n3)nc2)CC1 + COc1c(OCCCN2CCOCC2)ccc2c3n(c(=NC(=O)c4cnc(N)nc4)nc12)CCN3")
41.6
>>> observed_result("CCCS(=O)(=O)Nc1ccc(F)c(C(=O)c2c[nH]c3ncc(-c4ccc(Cl)cc4)cc23)c1F + COc1c(OCCCN2CCOCC2)ccc2c3n(c(=NC(=O)c4cnc(N)nc4)nc12)CCN3")
103
>>> observed_result("C=CC(=O)N1CCN(c2nc(=O)n(-c3c(C)ccnc3C(C)C)c3nc(-c4c(O)cccc4F)c(F)cc23)C(C)C1 (stereo not given) + COc1c(OCCCN2CCOCC2)ccc2c3n(c(=NC(=O)c4cnc(N)nc4)nc12)CCN3")
108
>>> observed_result("CC1(C)CCC(CN2CCN(c3ccc(C(=O)NS(=O)(=O)c4ccc(NCC5CCOCC5)c([N+](=O)[O-])c4)c(Oc4cnc5[nH]ccc5c4)c3)CC2)=C(c2ccc(Cl)cc2)C1 + CC(Nc1ccc2c(c1)OCCn1cc(N3C(=O)OCC3C(F)F)nc1-2)C(N)=O")
88.9

====

Listing of entries alongside the reported pIC50.
- Tested on: 945468-187-T-J2-PDC spheroids viability
- Assay Remarks: Anticancer human tumor 945468-187-T-J2-PDC cell line growth inhibition [PI3K];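 note: spheroids exposed to compounds for seven days before reading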
- Condition Info: curve of first compound; second compound 0.0316 µM; spheroids with HUVEC and MSC
pIC50: −log10 of the molar value.
Readout Kind: pIC50

>>> observed_result("Cn1cnc2c(F)c(Nc3ccc(Br)cc3Cl)c(C(=O)NOCCO)cc21 + CC(Nc1ncnc2nc[nH]c12)c1cc2cccc(Cl)c2c(=O)n1-c1ccccc1")
"< 5.52"
>>> observed_result("Cn1ncc(Cl)c1-c1cc(C(=O)NC(CN)Cc2cccc(F)c2)sc1Cl (stereo unspecified) + COc1c(OCCCN2CCOCC2)ccc2c3n(c(=NC(=O)c4cnc(N)nc4)nc12)CCN3")
5.34
>>> observed_result("Cn1cnc2c(F)c(Nc3ccc(Br)cc3Cl)c(C(=O)NOCCO)cc21 + Cc1nc(NC(=O)N2CCCC2C(N)=O)sc1-c1ccnc(C(C)(C)C(F)(F)F)c1")
"< 5.52"
>>> observed_result("CC(=O)c1c(C)c2cnc(Nc3ccc(N4CCNCC4)cn3)nc2n(C2CCCC2)c1=O + CC(Nc1ncnc2nc[nH]c12)c1cc2cccc(Cl)c2c(=O)n1-c1ccccc1")
"< 7.00"
>>> observed_result("CCN1CCN(Cc2ccc(Nc3ncc(F)c(-c4cc(F)c5nc(C)n(C(C)C)c5c4)n3)nc2)CC1 + COc1c(OCCCN2CCOCC2)ccc2c3n(c(=NC(=O)c4cnc(N)nc4)nc12)CCN3")
6.15
>>> observed_result("CCN1CCN(Cc2ccc(Nc3ncc(F)c(-c4cc(F)c5nc(C)n(C(C)C)c5c4)n3)nc2)CC1 + CC(Nc1ccc2c(c1)OCCn1cc(N3C(=O)OCC3C(F)F)nc1-2)C(N)=O")
"< 6.00"
